These entries and their values trace back to patent US6410792B1.

- Test Target: Rat NPY5 receptor (Rattus norvegicus, UniProt Q63634)
- Sequence (Q63634 whole entry): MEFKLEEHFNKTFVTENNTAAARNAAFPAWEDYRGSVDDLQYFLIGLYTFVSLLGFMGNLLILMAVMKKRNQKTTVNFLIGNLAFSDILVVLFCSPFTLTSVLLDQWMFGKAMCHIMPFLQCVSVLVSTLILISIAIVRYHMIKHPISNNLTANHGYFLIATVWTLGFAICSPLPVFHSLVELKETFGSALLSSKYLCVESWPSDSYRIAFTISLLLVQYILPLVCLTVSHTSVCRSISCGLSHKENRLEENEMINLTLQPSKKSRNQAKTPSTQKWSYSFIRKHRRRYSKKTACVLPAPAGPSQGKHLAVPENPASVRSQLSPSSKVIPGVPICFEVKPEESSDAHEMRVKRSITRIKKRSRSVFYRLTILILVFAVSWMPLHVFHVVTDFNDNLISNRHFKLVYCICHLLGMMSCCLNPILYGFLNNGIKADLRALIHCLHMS
- Test Description: Rat NPY5 receptor binding assay ([125I]PYY, membrane protein)
- Measurement Conditions: [125I]PYY binding, read-out: rNPY5 IC50
Readout: IC50 (µM)
Answers are plain numbers, in µM.

Would you please look over these solved cases?
| Compound | Measured Result |
| --- | --- |
| CCNC1CCN(CC(=O)Nc2ccc(C(=O)c3ccccc3)cc2)C1 (stereo not drawn) | 0.048 |
| CC(C)(C)OC(=O)NC1CCN(CC(=O)Nc2ccc(C(=O)c3ccccc3)cc2)C1 (stereo not drawn) | 0.071 |
| CC(C)(C)OC(=O)NC1CCN(CC(=O)Nc2ccc(C3CCCCC3)cc2)C1 (stereo not drawn) [Compound 194] | 0.035 |
| C#CC(C)(C)NCC(=O)Nc1ccc(C2CCCCC2)cc1 | 0.36 |
| N#CCNCC(=O)Nc1ccc(C(=O)c2ccccc2)cc1 | 1 |

Record IC50 for all entries; do not skip any.
1. C=CCC(NCC(=O)Nc1ccc(C(=O)c2ccccc2)cc1)C(=O)O (stereo not drawn)
2. O=C(CNCC1CC1)Nc1ccc(C2CCCCC2)cc1
3. CNC1CCN(CC(=O)Nc2ccc(C3CCCCC3)cc2)C1 (stereo not drawn) [Compound 198]
4. O=C(CNCc1ccco1)Nc1ccc(C(=O)c2ccccc2)cc1

1: 2.5; 2: 0.84; 3: 1.3; 4: 0.73

----------
Please provide measured IC50 for the entries that follow.
- Test Target: Human NPY5 receptor (Homo sapiens, UniProt Q15761)
- Sequence (Q15761 whole entry): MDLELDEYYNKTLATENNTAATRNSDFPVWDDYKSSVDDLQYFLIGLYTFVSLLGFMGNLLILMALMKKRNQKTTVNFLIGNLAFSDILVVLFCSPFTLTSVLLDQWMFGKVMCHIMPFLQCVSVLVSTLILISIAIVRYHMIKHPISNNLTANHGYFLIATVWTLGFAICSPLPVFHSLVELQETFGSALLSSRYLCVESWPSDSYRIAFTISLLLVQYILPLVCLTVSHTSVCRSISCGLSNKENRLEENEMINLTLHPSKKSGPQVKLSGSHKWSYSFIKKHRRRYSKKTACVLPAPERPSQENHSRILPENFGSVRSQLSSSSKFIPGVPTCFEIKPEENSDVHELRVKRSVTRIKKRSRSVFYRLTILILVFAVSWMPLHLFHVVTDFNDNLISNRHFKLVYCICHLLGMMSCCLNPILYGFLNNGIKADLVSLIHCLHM
- Test Description: Human NPY5 receptor binding assay ([125I]PYY, membrane protein)
- Measurement Conditions: [125I]PYY binding, read-out: hNPY5 IC50
One number for each entry, in µM.

See these solved cases before continuing.
| Compound | Measured Result |
| --- | --- |
| O=C(CN1CCCC1c1cccnc1)Nc1ccc(C(=O)c2ccccc2)cc1 (stereo not drawn) [Compound 77] | 2.6 |
| O=C(CN1CCC[C@@H]1C(=O)O)Nc1ccc(C2CCCCC2)cc1 [Compound 117] | 3 |
| CC1(C)C[C@@H]2C[C@@](C)(CN2CC(=O)Nc2ccc(C3CCCCC3)cc2)C1 [Compound 94] | 3.2 |
| N#CC1(c2ccccc2)CCN(CC(=O)Nc2ccc(C(=O)c3ccccc3)cc2)CC1 [Compound 44] | 0.093 |

Kindly give each listed record's IC50.
1. O=C(CN1CCC2(CC1)C(=O)NCN2c1ccccc1)Nc1ccc(C(=O)c2ccccc2)cc1 [Compound 58]
2. O=C(CN1CCC[C@H]1C(=O)O)Nc1ccc(C(=O)c2ccccc2)cc1 [Compound 110]
3. O=C(CN1CCN(Cc2ccccc2)CC1)Nc1ccc(C(=O)c2ccccc2)cc1 [Compound 16]
4. CNC1CCN(CC(=O)Nc2ccc(C3CCCCC3)cc2)C1 (stereo not drawn) [Compound 198]
5. O=C(CN1CCN(c2cccc(Cl)c2)CC1)Nc1ccc(C(=O)c2ccccc2)cc1 [Compound 9]
6. O=C(CN1CCCC1CO)Nc1ccc(C(=O)c2ccccc2)cc1 (stereo not drawn) [Compound 118]
7. CN(C)C1CCN(CC(=O)Nc2ccc(C(=O)c3ccccc3)cc2)CC1 [Compound 49]
8. CC1(C)CCN(CC(=O)Nc2ccc(C(=O)c3ccccc3)cc2)CC1 [Compound 51]

2
8.7
9.6
1
0.64
2
8.8
3.3

Parameters: items (list). Returns: IC50 for each item.
1. O=C(CNCCCn1ccnc1)Nc1ccc(C2CCCCC2)cc1 [Compound 234]
2. CC(C)(C)OC(=O)NC1CCN(CC(=O)Nc2ccc(C(=O)c3ccccc3)cc2)C1 (stereo not drawn) [Compound 205]

1. 0.95
2. 0.072
